system-tested: recombinant human 5-HT5A receptor (Homo sapiens, UniProt P47898)
Sequence (P47898 whole entry): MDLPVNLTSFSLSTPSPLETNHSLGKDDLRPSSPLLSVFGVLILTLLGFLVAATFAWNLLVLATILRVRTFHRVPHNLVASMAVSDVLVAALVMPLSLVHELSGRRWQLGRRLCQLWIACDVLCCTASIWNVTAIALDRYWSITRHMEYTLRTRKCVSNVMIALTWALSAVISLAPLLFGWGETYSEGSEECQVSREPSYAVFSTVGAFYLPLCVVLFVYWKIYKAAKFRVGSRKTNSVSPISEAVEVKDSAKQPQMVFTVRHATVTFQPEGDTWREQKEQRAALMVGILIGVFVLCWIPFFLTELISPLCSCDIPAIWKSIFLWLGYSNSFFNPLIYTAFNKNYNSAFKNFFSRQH
test-protocol: [3H]LSD radioligand binding assay
condition-parameters: [3H]LSD approx. 1 nM; membranes from HEK-EBNA cells transiently expressing 5-HT5A; SPA; Ki from IC50 by Cheng-Prussoff equation
Description: A [^3H]LSD radioligand binding assay was used to determine the affinity of the compounds for the recombinant human 5-HT5A receptor, in membranes from transiently (cDNA) expressed 5-HT 5A receptors in Human Embryonic Kidney-EBNA (HEK-EBNA) cells. […] Bound ligand was determined using a Packard Topcount scintillation counter. IC50 values were calculated using a non-linear curve fitting program and Ki values calculated using the Cheng-Prussoff equation.
pKi: −log10 of the molar value.
metric-name: pKi

# molecule, pKi
rows = [
    ("c1ccc2c(c1)CNC(Nc1cccc3ccccc13)=N2 [Example 6]", 6.81),
    ("c1ccc2c(c1)CNC(Nc1ccc3c(c1)CCC3)=N2 [Example 5]", 6.83),
    ("Fc1ccccc1NC1=Nc2ccccc2CN1 [Example 16]", 6.00),
    ("Cc1cccc(NC2=Nc3ccccc3CN2)c1 [Example 4]", 6.84),
    ("Clc1ccc(NC2=Nc3ccccc3CN2)cc1 [Example 15]", 6.00),
]

1: FC(F)(F)c1cccc(NC2=Nc3cccc(Cl)c3CN2)c1 [Example 3]
2: Clc1cccc(NC2=Nc3ccccc3CN2)c1 [Example 10]
Lab note: check whether 1 or 2 has the lower measured pKi. Select an item and report its label.
2
(2: 6.52, 1: 6.93)
